Can you tell me IC50 for the items I'm about to list?
# assay_system: T1, CD3 expressed on cell-surface of primary human T cells (human, UniProt P07766 23-207; P04234 22-171)
# T1 construct: also called cell-surface CD3; human CD3
# T1 sequence (P07766 23-207 limits assumed, chain 1 of 2): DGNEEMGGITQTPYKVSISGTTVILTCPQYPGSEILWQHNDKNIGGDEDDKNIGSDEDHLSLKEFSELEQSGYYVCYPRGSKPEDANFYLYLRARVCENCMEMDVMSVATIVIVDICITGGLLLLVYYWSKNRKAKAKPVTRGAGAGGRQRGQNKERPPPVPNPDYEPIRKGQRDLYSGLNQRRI
# T1 sequence (P04234 22-171 limits assumed, chain 2 of 2): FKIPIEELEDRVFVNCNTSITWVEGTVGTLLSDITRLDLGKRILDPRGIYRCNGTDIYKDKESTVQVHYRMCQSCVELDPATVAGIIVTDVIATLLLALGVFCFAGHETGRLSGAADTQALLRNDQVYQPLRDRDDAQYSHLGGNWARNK
# assay_comment: flow cytometry competition vs murine SP34-AF488 on human T cells, n = 1

In plain terms, huSP34.8.2 Fab-HF (Fab, V domains shown) VH: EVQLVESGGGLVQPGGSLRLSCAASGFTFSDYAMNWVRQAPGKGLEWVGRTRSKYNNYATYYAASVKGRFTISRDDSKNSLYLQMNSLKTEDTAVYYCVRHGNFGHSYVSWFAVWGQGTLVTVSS VL: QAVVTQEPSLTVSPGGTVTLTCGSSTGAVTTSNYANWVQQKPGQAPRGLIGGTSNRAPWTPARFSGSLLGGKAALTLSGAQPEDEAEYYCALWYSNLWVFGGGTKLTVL has a documented IC50 of > 20 µg/mL

Reported IC50 for huSP34.6.1 Fab-HF (Fab, V domains shown) VH: EVQLVESGGGLVQPGGSLRLSCAASGFTFSTYAMNWVRQAPGKGLEWVGRIRSKYNNYATYYADSVKGRFTISRDNSKNTLYLQMNSLRAEDTAMYYCVRHGNFGNSYVSWFAVWGQGTLVTVSS VL: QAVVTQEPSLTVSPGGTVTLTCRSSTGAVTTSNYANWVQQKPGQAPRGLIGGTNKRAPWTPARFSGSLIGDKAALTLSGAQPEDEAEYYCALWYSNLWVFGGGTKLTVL was > 20 µg/mL

Entry huSP34.6.4 Fab-HF (Fab, V domains shown) VH: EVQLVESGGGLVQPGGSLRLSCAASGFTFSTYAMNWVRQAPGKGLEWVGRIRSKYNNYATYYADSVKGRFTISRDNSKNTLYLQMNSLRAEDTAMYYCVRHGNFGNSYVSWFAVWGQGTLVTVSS VL: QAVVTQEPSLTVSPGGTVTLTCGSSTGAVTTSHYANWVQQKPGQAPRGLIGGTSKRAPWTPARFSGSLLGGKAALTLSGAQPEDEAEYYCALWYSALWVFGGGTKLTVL ; IC50 = > 20 µg/mL

The reported measurements were obtained from patent US20230056252A1.
